experiment: In vivo intravenous pharmacokinetic study in rats; design: species or system Sprague Dawley rats; conditions: male, Sprague Dawley, plasma; rat, intravenous 1 mg/kg, mean, N=3
property measured: AUC (µg·h/mL)

| compound | experimental result |
| --- | --- |
| CCC(C)N(C)CCc1c[nH]c2ccc(F)cc12 (stereo not shown) | 0.594 |

---

Counter-ions that a name gives are not always drawn.
property measured: melting point

| molecule | property measured | experimental result |
| --- | --- | --- |
| CCC(C)N(C)CCc1c[nH]c2ccc(F)cc12 (centres unmarked) (as salt: HCl) | melting point | 136.5 to 142 °C |
| CCCN(C)CCc1c[nH]c2ccc(F)cc12 | melting point | 80 to 82 °C |
| CC(C)N(CC#N)CCc1c[nH]c2ccc(F)cc12 (as salt: HCl) | melting point | 147 to 150 °C (dec.) |
| CCCN(CC)CCc1c[nH]c2c(F)c(F)c(F)cc12 (as salt: hydrochloride) | melting point | 188 to 188.8 °C |
| CCCN(CC)CCc1c[nH]c2ccc(F)cc12 (as salt: HCl) | melting point | 154.5 to 155.4 °C |

---

target: 5-HT2A (Homo sapiens (Human), UniProt P28223); test: 5-HT2A Gq-mediated calcium flux functional assay; assay type: cell-based; details: IA = Inactive; N=1-3
property measured: 5-HT2A-Ca2+ FLUX Emax (% 5-HT)

| compound | property measured | experimental result |
| --- | --- | --- |
| CCCN(CC)CCc1c[nH]c2cc(F)c(F)cc12 [Example 9] | 5-HT2A-Ca2+ FLUX Emax (% 5-HT) | 105.7 |
| CCC(C)N(C)CCc1c[nH]c2ccc(F)cc12 (centres unmarked) [Example 3] | 5-HT2A-Ca2+ FLUX Emax (% 5-HT) | 94.8 |
| CCN(C)CCc1c[nH]c2cc(C)c(F)cc12 [compound 175] | 5-HT2A-Ca2+ FLUX Emax (% 5-HT) | 48.6 |
| CC(C)N(CCc1c[nH]c2ccc(F)cc12)C1CCC1 [compound 40] | 5-HT2A-Ca2+ FLUX Emax (% 5-HT) | 102.5 |
| CCN(C)CCc1c[nH]c2ccc(F)cc12 [Example 12] | 5-HT2A-Ca2+ FLUX Emax (% 5-HT) | 101.8 |
| CN(C)CCc1c[nH]c2ccc(F)cc12 [Compound 5-F-DMT] | 5-HT2A-Ca2+ FLUX Emax (% 5-HT) | 96.6 |
| CCCN(CCC)CCc1c[nH]c2ccc(F)cc12 [Example 5] | 5-HT2A-Ca2+ FLUX Emax (% 5-HT) | 106.7 |
| CCCN(CCc1c[nH]c2ccc(F)cc12)C(C)CC (centres unmarked) [compound 22] | 5-HT2A-Ca2+ FLUX Emax (% 5-HT) | 105.4 |
| C=CCN(CCc1c[nH]c2ccc(F)cc12)C(C)C [Example 11] | 5-HT2A-Ca2+ FLUX Emax (% 5-HT) | 105.4 |
| CCCN(CCc1c[nH]c2ccc(F)cc12)C1CCC1 [compound 33] | 5-HT2A-Ca2+ FLUX Emax (% 5-HT) | 107.0 |
| CCN(CCc1c[nH]c2ccc(F)cc12)C1CCC1 [compound 31] | 5-HT2A-Ca2+ FLUX Emax (% 5-HT) | 104.5 |

---

biological target: 5-HT2C (Homo sapiens (Human)); assay: 5-HT2C Gq-mediated calcium flux functional assay; assay type: cell-based
Sequence (P28335 whole entry, looked up): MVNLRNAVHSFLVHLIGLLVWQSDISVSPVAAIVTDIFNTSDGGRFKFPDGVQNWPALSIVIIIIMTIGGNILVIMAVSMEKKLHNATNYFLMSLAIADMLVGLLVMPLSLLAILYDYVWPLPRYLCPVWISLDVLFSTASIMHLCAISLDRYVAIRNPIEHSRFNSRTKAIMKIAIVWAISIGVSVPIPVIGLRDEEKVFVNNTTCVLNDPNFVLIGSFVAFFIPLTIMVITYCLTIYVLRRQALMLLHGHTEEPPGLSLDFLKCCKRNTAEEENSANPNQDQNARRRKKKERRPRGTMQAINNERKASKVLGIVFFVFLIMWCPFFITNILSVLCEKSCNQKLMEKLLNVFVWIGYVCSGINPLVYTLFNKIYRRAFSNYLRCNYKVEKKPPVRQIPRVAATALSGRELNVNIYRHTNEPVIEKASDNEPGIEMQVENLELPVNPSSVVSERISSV
pEC50: −log10 of the molar value.

| compound | pEC50 |
| --- | --- |
| CCN(CCc1c[nH]c2ccc(F)cc12)C1CCC1 | 7.24 |
| C=CCN(CCc1c[nH]c2ccc(F)cc12)C(C)C | 7.69 |
| CN1CCC[C@H]1Cc1c[nH]c2ccc(F)cc12 | 7.25 |
| CCN(C)CCc1c[nH]c2cc(F)c(Cl)cc12 | 7.64 |
| CCC(C)N(CCc1c[nH]c2ccc(F)cc12)C(C)C (stereo not shown) | 7.19 |
| CC(C)N(C)CCc1c[nH]c2ccc(F)cc12 | 7.66 |
| C#CCN(CCc1c[nH]c2ccc(F)cc12)C(C)CC (stereo not shown) | 6.72 |
| CCCN(CC)CCc1c[nH]c2c(F)c(F)ccc12 | 6.71 |
| C=CCN(CC)CCc1c[nH]c2ccc(F)cc12 | 7.77 |
| CCCN(CC)CCc1c[nH]c2cc(F)c(F)cc12 | 7.72 |

---

target: 5-HT1A (Homo sapiens (Human), UniProt P08908); assay: 5-HT1A Gi/o-mediated cAMP inhibition, GloSensor assay
# log10(EC50) values compiled below
property measured: log10(EC50) (log10 of the value in nM)

| compound | experimental result |
| --- | --- |
| CCCN(CC)CCc1c[nH]c2ccc(F)cc12 [Example 6] | 1.69 |
| CCCN(C)CCc1c[nH]c2ccc(F)cc12 [Example 13] | 2.39 |
| CCN(C)CCc1c[nH]c2ccc(F)cc12 [Example 12] | 1.88 |
| CCC(C)N(CCc1c[nH]c2ccc(F)cc12)C(C)C (stereo not drawn) [compound 32] | 3.10 |
| C=CCN(C)CCc1c[nH]c2ccc(F)cc12 [Example 10] | 1.95 |
| CCC(C)N(C)CCc1c[nH]c2ccc(F)cc12 (stereo not drawn) [Example 3] | 3.59 |
| CN1CCC(c2c[nH]c3c(F)cccc23)C1 (stereo not drawn) [compound 23] | 1.35 |
| CN(CCc1c[nH]c2ccc(F)cc12)C1CSC1 [compound 20] | 2.90 |
| CCN(CCc1c[nH]c2ccc(F)cc12)C(C)C [Example 1] | 2.77 |
| CCCN(CCc1c[nH]c2ccc(F)cc12)C(C)C [Example 4] | 2.52 |
| CC(C)N(C)CCc1c[nH]c2ccc(F)cc12 [Example 2] | 3.26 |
| CCC(C)N(CC)CCc1c[nH]c2ccc(F)cc12 (stereo not drawn) [compound 30] | 2.67 |
| CC(CN)c1c[nH]c2ccc(F)cc12 (stereo not drawn) [compound 187, 2-(5-fluoro-1H-indol-3-yl)propan-1-amine] | 2.97 |
| C=CCN(CCc1c[nH]c2ccc(F)cc12)C(C)CC (stereo not drawn) [compound 16] | 2.22 |
| CCCN(CC)CCc1c[nH]c2cc(F)c(F)cc12 [Example 9] | 2.36 |
| CCN(CCc1c[nH]c2ccc(F)cc12)C1CCC1 [compound 31] | 1.35 |
| CCCN(CCc1c[nH]c2ccc(F)cc12)C(C)CC (stereo not drawn) [compound 22] | 2.51 |
| CC(C)N(CCc1c[nH]c2ccc(F)cc12)C1CCC1 [compound 40] | 1.82 |
| CN1CCC[C@@H]1Cc1c[nH]c2ccc(F)cc12 [compound 28] | 1.86 |
| CCCN(CCc1c[nH]c2ccc(F)cc12)C1CCC1 [compound 33] | 1.16 |
| CN1CCC[C@H]1Cc1c[nH]c2ccc(F)cc12 [compound 27] | 2.75 |
| CN1CC(c2c[nH]c3ccc(F)cc23)C1 [compound 29] | 2.93 |
| CCCN(CCC)CCc1c[nH]c2ccc(F)cc12 [Example 5] | 1.87 |
| CCCN(CC)CC(=O)c1c[nH]c2ccc(F)cc12 [compound 24] | -0.31 |
| C=CCN(CC)CCc1c[nH]c2ccc(F)cc12 [compound 36] | 1.75 |
| C=CCN(CCc1c[nH]c2ccc(F)cc12)C(C)C [Example 11] | 2.18 |
| CN1CCC(c2c[nH]c3cc(F)c(F)cc23)C1 (stereo not drawn) [compound 19] | 3.47 |

---

# melting point values compiled below
Counter-ions that a name gives are not always drawn.
property measured: melting point

| molecule | experimental result |
| --- | --- |
| CN1CC(c2c[nH]c3ccc(F)cc23)C1 | 119 to 122.8 °C |
| C=CCN(CCc1c[nH]c2ccc(F)cc12)C(C)C (as salt: HCl) | 132 to 134 °C |
| C=CCN(CCC)CCc1c[nH]c2ccc(F)cc12 (as salt: salt) | 175.1 to 177.2 °C |
| CCN(CCc1c[nH]c2ccc(F)cc12)C(C)C | 77.1 to 78.1 °C |
| CC(C)N(CCc1c[nH]c2ccc(F)cc12)CC1CC1 (as salt: hydrochloride) | 191 to 192.5 °C |
| CCN(C)CCc1c[nH]c2c(F)c(F)c(F)cc12 | 212.1 to 212.5 °C |
| CN(CCc1c[nH]c2ccc(F)cc12)C1CSC1 (as salt: HCl) | 221 to 223.3 °C |
| CCCN(CCc1c[nH]c2ccc(F)cc12)C(C)CC (stereo not drawn) (as salt: hydrochloride) | 153.2 to 155.4 °C |
| CCCN(CC)CCc1c[nH]c2cc(F)c(F)cc12 | 83 to 86 °C |

Attribution: patent US20240286998A1
